- method-notes: Plasma pharmacokinetics of co-administered DMT and DMT-d10 by intravenous (bolus), oral gavage and inhalation administration to male rats
- measurement-setup: male, Sprague Dawley, rat, plasma, po, 10 mg/kg, AUC0-1, plasma, Group 2 oral gavage (OG), 10 mg/kg, male rats
measurement-name: AUC(0-t) (ng·h/mL)
One number for each entry, in ng·h/mL.

# compound, u, meas-value
measured = [
    ("[2H]C([2H])([2H])N(C([2H])([2H])[2H])C([2H])([2H])C([2H])([2H])c1c[nH]c2ccccc12 [DMT-d10]", "ng·h/mL", 8.78),
]

AUC(0-t) reported for this compound CN(C)CCc1c[nH]c2ccccc12 [DMT, N,N-dimethyltryptamine] : 13.7

====

Assignment: determine reported AUC(0-t) for the given molecules.
- method-notes: Plasma pharmacokinetics of co-administered DMT and DMT-d10 by intravenous (bolus), oral gavage and inhalation administration to male rats
- measurement-setup: male, Sprague Dawley, rat, plasma, inhaled or intranasal, AUC0-1, plasma, inhalation, DMT 15.3 mg/kg, DMT-d10 14.7 mg/kg (summary table)
Answers are plain numbers, in ng·h/mL.

# compound, measurement-name, meas-value
records = [
    ("[2H]C([2H])([2H])N(C([2H])([2H])[2H])C([2H])([2H])C([2H])([2H])c1c[nH]c2ccccc12", "AUC(0-t)", 267),
]

Next:
AUC(0-t) reported for this molecule CN(C)CCc1c[nH]c2ccccc12 : 265

====

- method-notes: Plasma pharmacokinetics of co-administered DMT and DMT-d10 by intravenous (bolus), oral gavage and inhalation administration to male rats
- measurement-setup: male, Sprague Dawley, rat, plasma, inhaled or intranasal
Assignment: determine reported half-life for the given compounds.
Numbers only, in min.

# compound, half-life, min
measured = [
    ("[2H]C([2H])([2H])N(C([2H])([2H])[2H])C([2H])([2H])C([2H])([2H])c1c[nH]c2ccccc12 [DMT-d10]", 23.7),
]

Next:
half-life reported for this compound CN(C)CCc1c[nH]c2ccccc12 [DMT, N,N-dimethyltryptamine] : 19.7

====

Assignment: determine reported Tmax for the given compounds.
- method-notes: Plasma pharmacokinetics of co-administered DMT and DMT-d10 by intravenous (bolus), oral gavage and inhalation administration to male rats
- measurement-setup: male, Sprague Dawley, rat, plasma, po, 10 mg/kg
One number for each entry, in h.

# compound, measurement-name, u, meas-value
data = [
    ("[2H]C([2H])([2H])N(C([2H])([2H])[2H])C([2H])([2H])C([2H])([2H])c1c[nH]c2ccccc12", "Tmax", "h", 1),
]

Tmax reported for this compound CN(C)CCc1c[nH]c2ccccc12 : 1

====

- method-notes: Brain pharmacokinetics and brain to plasma ratio after IV co-administration of DMT and DMT-d10 to male rats (Group 4)
- Type: in vivo, Sprague Dawley rats
- measurement-setup: Sprague Dawley, rat; brain, Group 4 IV bolus 1 mg/kg, male rats
measurement-name: Tmax (min)
Numbers only, in min.

# compound, Tmax / min
records = [
    ("[2H]C([2H])([2H])N(C([2H])([2H])[2H])C([2H])([2H])C([2H])([2H])c1c[nH]c2ccccc12 [DMT-d10]", 5),
]

Tmax reported for this compound CN(C)CCc1c[nH]c2ccccc12 [DMT, N,N-dimethyltryptamine] : 5
